Reference source: the supplement of paper PMC6555819

- Test system: PPARg:RXRa 30nM:10nM, anti-RXR (NR concentration 30 nM, RXRa partner concentration 10 nM)
- ASSAY PROTOCOL: PBM binding z-score (relative to random genomic background probes); higher = stronger binding; sequences stand for … in GC…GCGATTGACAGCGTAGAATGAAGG
OBSERVATION TYPE: PBM binding z-score
Lab note: jot down the number only; don't add units.

Look up PBM binding z-score for this sequence: ATCTCTAGGTACCCAAGTTCAGTGAATGCCGAAC
0.321

Param item: TGAACGAGGTTAAAGATCAGGGAACGTGGCGTCG
4.28

What about this sequence? TATACAGGGTCAAAGGCCAGAGTTCGAATGTCGA
5.54

And for TAGCCTAGGTCAGATCGGGCCAGTATCCGCTATA ?
-0.351

Field entry: CCTACTAGGCCAAAGGTCATTGATTCCAATGCTC
11.4

Record: TCGAGTAGGTTACCAATGGGGCACTCAGCTTTCT
1.09

# repeat for CCGGCTGGGGCATAAGGTTACCATAAGCCAGCCC
-0.332

Same lookup for CGTCAAAGTTCAACTAAGGTACCGTAAAGCACGC , please.
2.29

Entry GCGACTGGGCCAAAGCAGGTTACCATAAGGTTGG please
-0.481

Similarly, CAAACAGGGTCAGCTAGGCCAGAGTAGGGACGGC ?
0.838

Record: AGAATGACGTTACCAAAGATCAGGGAAACGCTTG
0.189

# iterate: TCTGGGAGGACACGAAGGTCAGAGCTTTCCAGAG
1.51

* * *

- Tested on: PPARg DBDmut IVT, anti-PPARg (DBD mutation: PPARg1 K132A/R137A, NR concentration 270 nM)
- ASSAY PROTOCOL: PBM binding z-score (relative to random genomic background probes); higher = stronger binding; sequences stand for … in GC…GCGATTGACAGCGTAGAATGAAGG
OBSERVATION TYPE: PBM binding z-score
Respond with the number and no other words.

If you can, please state the reported PBM binding z-score value of TTACCAAGGTGAAAGGCCGTTGATGCACGCCTTG .
-0.0172

How about ATCTCTAGGTAAAGATAGTGCAGTGAATGCAAAT ?
0.751

Could you do the same for GCTGCTATGTCAGGTTGGTCAGCTAACGGGTACG , please?
-1.12

# repeat for AGAATGAGGTTATTAAGAGCAGGGAATTGCGGTC
-0.178

Same question, GGAACGAGGGCATGCGAGTTGATAGCATGGCGAT this time
-0.663

Consider next the sequence ATCGGAAGGTCGTGAGGTGAGTATACAGAAAGGC in the same way.
0.491

For TCTGCGAGGTCAACGATGGTCAGCTAATCTGCTA then?
1.25

Please give the result for CAAACTAGGTCAAGAGGTCAGAGTCCGCTTCCCG too.
1.17

Same lookup for GCTAGCAGGCCATATGGGTCACTCAATGACGGGC , please.
-0.866

What about TTACCAAGGTGTAAGGTCGTTGATGCACGCCTTG ?
-0.033

Would you kindly repeat that for TAGCCTAGGACAGATCGGGCCAGTATACGCTATA ?
0.0562

What do you get for ACAGACAGGTCATGAAGGTAACTCAGGCTATCAT ?
1.12

Lookup TAGCCTGGGTCATGCGGGCCAGTATAGTGTCGGC
0.545

Would you mind doing TCATATAGGTAAATGCTAGGTGACAGTCCGATCT as well?
0.754

// same read-out, input: TATACAGGGTCAAAGGCAAGAGTACGAATGTCGA
1.87

Note, next up: CCTAGCAGGCCCATCTGGGTCACTCAAGGCTTGA
-1.83

Also CGAACTAGGTCAGAACCGGACAGTGAAGGATGAT , if possible.
-0.265

Thanks! And TCTGCTAGGTCAACGATGGACAGCTAATCTGCTA ?
0.358

Next sequence: TAGGCTAGGTCATTGGGCCAGTATAGTACGCATC
0.421

Same again, this time with TCTAGCAGGCCAGGGGGTCACTCAAGAGGTACGG
1.84

Now consider ATCTCTAGGTAAGACTGAGTTCAGTGAAGAACGC .
0.923

One more sequence: TTACCATGGTGAGCTGAGGTCGTTGATCCAACTC
-0.449

Now the sequence CGAACTAGATCAAGGACAGTGAATCTCCGCACGC
-0.153

And for CAAACTAGATCAAGGTCAAAGTCGGTTTGTGCCA ?
-0.496

Subsequent entry: CGTCAAAGTTCAACTAAGATAACGTAAAGCACGC
2.53

Check CTACCATGGTGAACAAGGTCGTTGATTACTATTC too.
0.226

* * *

- System: RXRa homodimer (NR concentration 180 nM)
- ASSAY PROTOCOL: PBM binding z-score (relative to random genomic background probes); higher = stronger binding; sequences stand for … in GC…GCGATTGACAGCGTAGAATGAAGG
OBSERVATION TYPE: PBM binding z-score
// response body must contain only the number

Name the reported PBM binding z-score value associated with the sequence TCTGCTAGGTCAACGATGGTCAGCCAATCTGCTA
2.55

Same question, TCATATAGGTAAATACTAGGTGAAAGTCCGATCT this time
1

Entry ACTAGCAGGCCAAGTATGGGTCACTCAAACAAAG please
1.11

Moving on to TCTATTAGTTGATTAGGGCAACAGAAACAGCGGA
0.691

For TCATATAGGTAAGCAGGTGAAAGTCCGTAAGTTA then?
0.347

Repeat with CGTCCAATGTCAGAGAGGTCAGTGAATGCCGAGT
2.57

And the next one, ATCGAAAGGTCGAAGATGAGTATACCCACCCGAA ?
3.68

Could you do the same for CGTCCAAGGTCAAGGTCAGCGAAAGAGACTCGAA , please?
6.74

Similarly, CAAACTAGGTCAGAGAGGTCAAAGTCCGTGCGTA ?
7.07

Next entry: TCATATAGGTAAATGCTAGGTGAAAGGCCGATCT
0.896

Now consider TCTATCAGTTGAAGGGCAACCGACGAGTCCGTTT .
0.849

// next record CCTATTAGTTGACCATAAGGGCTACCGAAGCTCG
0.214

* * *

- System: LXRb:RXRa (NR concentration 270 nM, RXRa partner concentration 90 nM)
- ASSAY PROTOCOL: PBM binding z-score (relative to random genomic background probes); higher = stronger binding; sequences stand for … in GC…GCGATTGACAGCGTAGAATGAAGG
OBSERVATION TYPE: PBM binding z-score
Note: the reply should be a number with no unit written.

Field: PBM binding z-score (LXRb:RXRa (NR concentration 270 nM, RXRa partner concentration 90 nM)). Entry: AGAATGAGGTTATTAGGATCAGGGAATTGCGGTC
1.38

Let us now turn to CCTACTGGGGCAAGGTCATTGATCAGTCAAAGCA
2.98

Next record, please: TCTAGCAGGCCAGAGGATCACTCAAGAGGTACGG
-0.773

// same read-out, input: CCTGCTAGATCATGGTCAGCTAATCTACAGTATG
-0.476

Proceed to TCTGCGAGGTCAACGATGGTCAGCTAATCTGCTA
4.75

Same lookup for CCTACGGGGCCATCAGGTCATTGATATCAACGTT , please.
1.91

Thanks! And TGAATGAGGTTATACGATCAGGGAACGTTGCAAA ?
1.05

ATCGAAAGGTCGTGTGGTGAGTATACAGAAAGGC ?
3.43

Also check ATACCAAGGTGATTGTGAGGTCGTTGATACTAAC
1.81

Another sequence to check: TCTTGTCGATCAAGCAGGTTAAGAAAGCCTGAGT
0.373

Same for TCATATTGGTAAATGCTAGGTGAAAGTCCGATCT
0.796

Please answer likewise for CAAACTAGGTCACGAAAGGTCCAAGTCGAATGAC
2.73

Now give it for ATTCAAAGTTCAGGACGAGGTAACGTAAAGCACG too.
2.22

Follow-up item: CGAACGAGGGCATGAGTTGATAGCCAATGCCGAT
-0.0834

Then this sequence: AGAATGAGGTTAAGATCAGGTAAACAGAATACAT
2.24

Now consider CCGACTGGGGCATAAGGTTACCATTAGCCAGCCC .
0.617

How about this sequence: TCTAGTTGGTCACGAAGGTCACACACGACGGGTA
3.17

// repeat for CGAACTAGGTCATTGTCAGGACAGTGAATAGTAA and report
1.99

Would you kindly repeat that for GCTAGTTGGTCAGTAATAGGTCACACACCGGTCG ?
1.77

How about this sequence: CAGCCTAGGTCGGGGCCAGTATAGGAGGAACGTT
-0.47

Would you mind doing ACTAGCAGGCCAAGTTTGGGTCCCTCAAACAAAG as well?
-0.842

Would you kindly repeat that for CAGCCTAGGTCAGGGCCAGTATGGGAGGAACGTT ?
0.176

And AAAATGAGGTTATACGTAGATCAGGGAAGAAAGT ?
1.87

Next: CCTGCTATGTCATGGTCAGCTAATCTACAGTATG
-0.0445

And the next one, CGTCGAAGGTCAAAGGTCAGTGAAGAGATGACGG ?
6.62

Next sequence up: CCTATTAGTTGACCGTAAGGGCAACCGAAGCTCG
0.769

Thanks! And CCGACTGTGGCAAGGTTACCATAACGCACAGCCA ?
0.46

Could you do the same for TCGAGTCGGTTAGGGGCATTCAGAATGGCGTCGA , please?
0.203

Also check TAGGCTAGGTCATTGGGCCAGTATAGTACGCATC
1.87

Then TCATATAGGTAAACAGGTGAAACTCCGTAAGTTA ?
0.976

Here is the next sequence: GCTACCAGGCCATTTGGGTCACTCAATGACGGGC
0.301

Same thing, different sequence: GCTATTAGTTGAGAGGGCAACCGAATGATTCTCG
0.434

Repeat with CTCGAAAGGCCGGTTGAGGTGAGTATACGGATAA
-0.654

Next: GGAACGAGGGCATTCGACTTGATAGCATGGCGAT
-0.0929

Try AGAACGAGGGCAATGAGTTGATACCACGGGTGGC next.
-0.174

Quick one: ACTAGCAGGCCAAGGGTCACGCAAGATTAGTCCG
3.53

Same question, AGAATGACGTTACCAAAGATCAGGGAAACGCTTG this time
-0.336

Entry to check: CCGACTGGGGCAAGTTTACCATAACGCACAGCCA
0.0377

Also need TCATATTGGTAAAAGGTGAAAGTCGGTGTGGTAA , thanks.
2.06

And for CACACTAGGTCACGAAAGGTCAAAGTCGAATGAC ?
7.76

// next record GGAACGAGGGCATTCGAGTTAATAGCATGGCGAT
0.179

// same read-out, input: CCAGAGAGGTGAGAAGGTAACTCAGCCTCGATTA
1.02

Next up: ATCTCTCGGTAAAGTTCAGTGAAAGATCGATAGA
1.3

Next record, please: CGTCCAAGGTCATAGGAGGTCAGTGACGACAGAT
6.12

Then what about the sequence CCTTACGGGTCACTCCAGGTTATAGCGTCGGAGT ?
5.52

Here is the next sequence: CCTTACGGGTCACTGACAGGTTATCGCATTTGGA
3.38

Lookup ATCGAAAGGTCGGGGTGAGTATAGAGAAAGGGAA
3.56

Entry CAGGCTAGGTCAGGGCCAGTATAGGAGGAACGTT please
0.278

Now try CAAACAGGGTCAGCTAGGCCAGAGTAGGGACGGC .
2.21

And what about the sequence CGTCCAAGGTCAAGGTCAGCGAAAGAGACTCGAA ?
4.65

Please answer likewise for TTACCAAGGTGAGCTTAGGTCGTTGATCCAACTC
0.122
